target: T1, cMetECDHis (human, UniProt P08581 25-932, limits assumed, biotinylated in the cross-block ELISA of Example 17); assay: cross-block ELISA; competitor 058
T1 construct: Expressed in HEK-293F cells; also called soluble cMetECDHis; biotinylated cMetECDHis
Here, each record is paired with measured residual binding, % of no competitor data.

| binder | residual binding, % of no competitor / % |
| --- | --- |
| IgG1-1016-058 (antibody, V domains shown, also called IgG1-058; TH1016-058) VH: EVQLVESGGGLVKPGGSLKLSCAASGFTFSDYYMYWVRQTPEKRLEWVATISDDGSYTYYPDSVKGRFTISRDNAKNNLYLQMSSLKSEDTAMYYCAREGLYYYGSGSYYNQDYWGQGTLVTVSS VL: AIQLTQSPSSLSASVGDRVTITCRASQGLSSALAWYRQKPGKAPKLLIYDASSLESGVPSRFSGSGSGTDFTLTISSLQPEDFATYYCQQFTSYPQITFGQGTRLEIK | 4 |
| anti-c-Met HuMab 008 (IgG1) (antibody, V domains shown, also called TH1016-008; PC1016-008) VH: EVQLVQSGAEVKKPGESLKISCKGSGYSFTSYWIGWVRQMPGKGLEWMGIIYPGDSETRYSPSFQGQVTISADKSISTAYLQWSSLKASDTAMYYCARQEITGEFDYWGQGTLVTVSS VL: AIQLTQSPSSLSASVGDRVTITCRASQGISSALAWYQQKPGKAPKLLIYDASSLESGVPSRFSGSGSGTDFTLTISSLQPEDFATYYCQQFNSYPRTFGQGTKVEIK | 40.8 |
| anti-c-Met HuMab 006 (IgG1) (antibody, V domains shown, also called TH1016-006; PC1016-006) VH: QVQLVQSGAEVKKPGSSVKVSCKASGGTFSSFGIGWVRQAPGQGLEWMGRIFPILGTANYAQMFQGRVTITADKSTSTAYMELTSLRSEDTAVYYCARDVGYDSADAFDIWGQGTMVTVSS VL: DIQMTQSPSSLSASVGDRVTITCRASQGISSWLAWYQQKPEKAPKSLIYAASSLQSGVPSRFSGSGSGTDFTLTISSLQPEDFATYYCQQYNSYPPTFGQGTKVEIK | 3.6 |
| IgG1-1016-022 (antibody, V domains shown, also called TH1016-022; PC1016-022) VH: QVQLVESGGGVVQPGRSLRLSCAASGFTFSSYAMHWVRQAPGKGLEWVAVISYDGSNKYYADSVKGRFTISRDNSKNTLYLQMNSLRAEDTAVYYCARELLWFGELWGYFDLWGRGTLVTVSS VL: DIQMTQSPSSVSASVGDRVTITCRASQGISSWLAWYQHKPGKAPKLLIYAASSLQSGVPSRFSGSGSGTDFTLTISSLQPEDFATYYCQEASSFTWTFGQGTKVEIK | 5.8 |
| anti-c-Met HuMab 045 (IgG1) (antibody, V domains shown, also called TH1016-045; PC1016-045) VH: EVQLLESGGGLVQPGGSLRLSCAASGFTFSSYAMSWVRQAPGKGLEWVSVISGSGGITYYADSVKGRFTISRDNSKNTLYLQMNSLRAEDTAVYYCARDRGWGSDYWGQGTLVTVSS VL: EIVLTQSPATLSLSPGERATLSCRASQSVSSYLAWYQQKPGQAPRLLIYDASNRATGIPARFSGSGSGTDFTLTISSLEPEDFAVYYCQQRSNWPFTFGPGTKVDIK | 115 |
| anti-c-Met HuMab 181 (IgG1) (antibody, V domains shown, also called TH1016-181; PC1016-181) VH: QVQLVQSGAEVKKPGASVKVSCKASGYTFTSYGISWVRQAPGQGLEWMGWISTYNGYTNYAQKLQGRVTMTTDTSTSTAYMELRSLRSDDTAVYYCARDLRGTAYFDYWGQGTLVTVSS VL: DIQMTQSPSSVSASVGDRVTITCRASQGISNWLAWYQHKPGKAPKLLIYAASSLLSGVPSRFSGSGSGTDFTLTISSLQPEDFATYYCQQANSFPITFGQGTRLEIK | 98.9 |
| IgG1-024 (antibody, V domains shown, also called TH1016-024; PC1016-024) VH: EVQLLESGGGLVQPGGSLRLSCVASGFTFSSYAMSWVRQAPGKGLEWVSAISGSSGGSTYYVDSVKGRFTISRANSKNTLYLQMNSLRAEDTAVYYCAKDLDRGWMGYFGYWGQGTLVTVSS VL: DIQMTQSPSSVSASVGDRVTITCRASQGISSWLAWYQHKPGKAPKLLIYAASSLQSGVPSRFSGSGSGTDFTLTISSLQPEDFATYYCQQANSFPTFGQGTRLEIK | 103 |
| anti-c-Met HuMab 035 (IgG1) (antibody, V domains shown, also called P1016-035; TH1016-035-D09) VH: EVQLVQSGAEVKKPGESLKISCKGSGYSFTSYWIGWVRQMPGKGLEWMGIIYPGDSDTRYSPSFQGQVTISADKSISTAYLQWNSLKASDTAMYYCARQEITGEFDYWGQGTLVTVSS VL: AIQLTQSPSSLSASVGDRVTITCRASQGISSALAWYQQKPGKAPKLLIYDASSLESGVPSRFSGSGSGTDFTLTISSLQPEDFATYYCQQFNSYPMYTFGQGTKLEIK | 18.5 |
| IgG1-1016-069 (antibody, V domains shown, also called clone 069; TH1016-069) VH: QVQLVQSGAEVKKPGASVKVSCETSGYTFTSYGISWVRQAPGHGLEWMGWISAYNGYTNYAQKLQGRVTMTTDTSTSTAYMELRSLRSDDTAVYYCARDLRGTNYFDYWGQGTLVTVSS VL: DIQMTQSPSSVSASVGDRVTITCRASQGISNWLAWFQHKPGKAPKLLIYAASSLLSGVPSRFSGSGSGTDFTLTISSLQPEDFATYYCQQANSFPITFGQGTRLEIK | 101 |
